Data provenance is BindingDB's records for doi:10.1021/acs.jmedchem.8b01183.

# reported Ki; entries follow
Biological target: Sigma non-opioid intracellular receptor 1 (Cavia porcellus, UniProt Q60492)
Sequence (Q60492 whole entry): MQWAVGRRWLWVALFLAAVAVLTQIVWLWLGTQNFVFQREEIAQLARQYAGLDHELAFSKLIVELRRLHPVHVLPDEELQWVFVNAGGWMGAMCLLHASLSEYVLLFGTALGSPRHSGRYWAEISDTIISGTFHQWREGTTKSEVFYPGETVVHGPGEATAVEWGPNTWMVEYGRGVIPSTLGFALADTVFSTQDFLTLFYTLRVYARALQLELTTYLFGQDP
Assay: Displacement of [3H]-(+)-pentazocine from sigma1 receptor in guinea pig brain cortex membranes incubated for 120 mins by scintillation counting method
Reported Metric: Ki

Molecule: COc1cc2c(cc1OC)CN(C1CCC3(CC1)O[C@@H](O)Cc1ccccc13)CC2 (stereo partly drawn)
Reported Metric: Ki
Result: > 1000 nM
//
Molecule: CCOC(=O)C[C@@H]1Cc2ccccc2C2(CCC(NCc3ccc(C)cc3C)CC2)O1 (stereo partly drawn)
Reported Metric: Ki
Result: > 1000 nM
//
Molecule: CCOC(=O)C[C@@H]1Cc2ccccc2C2(CCC(N3CCN(C4CCCCC4)CC3)CC2)O1 (stereo partly drawn)
Reported Metric: Ki
Result: 12 nM
//
Molecule: CCOC(=O)C[C@H]1Cc2ccccc2C2(CCC(N3CCc4cc(OC)c(OC)cc4C3)CC2)O1 (stereo partly drawn)
Reported Metric: Ki
Result: > 1000 nM
//
Molecule: Cc1ccc(CNC2CCC3(CC2)O[C@H](CCF)Cc2ccccc23)c(C)c1 (stereo partly drawn)
Reported Metric: Ki
Result: > 1000 nM
//
Molecule: FCC[C@@H]1Cc2ccccc2C2(CCC(N3CCN(C4CCCCC4)CC3)CC2)O1 (stereo partly drawn)
Reported Metric: Ki
Result: 12 nM
//
Molecule: COc1cc2c(cc1OC)CN(C1CCC3(CC1)O[C@H](CCO)Cc1ccccc13)CC2 (stereo partly drawn)
Reported Metric: Ki
Result: > 1000 nM
//
Molecule: COc1cc2c(cc1OC)CN(C1CCC3(CC1)O[C@@H](CCO)Cc1ccccc13)CC2 (stereo partly drawn)
Reported Metric: Ki
Result: > 1000 nM
